Source listed as the nanobody polyreactivity screen of Harvey et al. (2022).

assay: yeast display, Sf9 membrane polyspecificity reagent, FACS + sequencing; frameworks hold sequencing errors
Property label: polyreactivity (PSR sort gate)

Some sequences with known polyreactivity (PSR sort gate) results, for comparison:
| Query sequence | polyreactivity (PSR sort gate) |
| --- | --- |
| QVQLVESGGGVVQAGGSLRLSCAASGLIFAYAMGWYSPAPGKERELVAVISWSGGSTYYADSVKGRFTISRDNAKNTVYLQMNSLKPEDTAVYYCAADYFGNWQLAGGYWGQGTQVTVSS | low polyreactivity |
| QVQLVESGGGLVQAGGSLRLSCAASGIILRRYAMGWYRQPPGKERELVAAISSRGGSTYYADSVKGRFTISRDNAKNTVYLQMNSLKPEDTAVYYCAAEDYWYDFDYWGQGTQVTVSS | high polyreactivity |
| QVQLVESGGGLVQAGGSLRLSCAASGRIFGQYTMGWYRQAPGKERELVAAISRSSSTKYADSVKGRFTISRDNAKNTVYLQMNSLKPEDTAVYYCAAYVYYYGGRTYDYWGQGTQVTVSS | high polyreactivity |
| QVQLVESGGGLVQAGGSLRLSCAASGSIFTYYAMGWYRQAPGKERELVAAITSTGGSTYYADSVKGRFTISRDNAKNTVYLQMNSLKPEDTAVYYCATDYGYYDYWGQGTQVTVSS | low polyreactivity |

Alright, here's another sequence for you.
polyreactivity (PSR sort gate) recorded for this sequence, QVQLVESGGGLVQAGGSLRLSCAASGSIFYPYAMGWYRQAPGKERELVAAISYSGGITYYADSVKGRFTISRDNAKNTVYLQMNSLKPEDTAVYYCNKLIYFKPAGSHDYWGQGTQVTVSS , is high polyreactivity
